IC50 values for the compounds below.
Target: Tyrosine-protein phosphatase non-receptor type 1 (Homo sapiens)
Sequence (P18031 whole entry): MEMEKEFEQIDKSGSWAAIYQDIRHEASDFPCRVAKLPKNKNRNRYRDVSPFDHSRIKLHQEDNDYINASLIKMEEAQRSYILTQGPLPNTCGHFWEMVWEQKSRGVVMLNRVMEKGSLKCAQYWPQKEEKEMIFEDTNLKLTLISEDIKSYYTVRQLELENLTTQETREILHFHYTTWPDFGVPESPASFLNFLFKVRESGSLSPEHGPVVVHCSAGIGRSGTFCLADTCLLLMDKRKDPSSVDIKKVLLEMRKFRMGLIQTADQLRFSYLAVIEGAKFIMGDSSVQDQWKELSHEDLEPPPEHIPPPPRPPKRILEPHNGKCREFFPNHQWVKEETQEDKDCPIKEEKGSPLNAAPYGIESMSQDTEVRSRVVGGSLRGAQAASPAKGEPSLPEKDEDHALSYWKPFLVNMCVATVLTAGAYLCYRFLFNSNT

Past entries and their recorded results:
q: Item under review: "COc1cccc(S(=O)(=O)Nc2ccc(-c3nc4cc(NS(=O)(=O)c5cccc(OC)c5)ccc4o3)cc2)c1" . Reported IC50?
a: 18 µM

q: Item under review: "CCc1ccc(S(=O)(=O)Nc2ccc(-c3nc4ccccc4o3)cc2)cc1" . Reported IC50?
a: 37 µM

q: Item under review: "Cc1ccc(S(=O)(=O)Nc2ccc(-c3nc4cc(NS(=O)(=O)c5ccc(C)cc5)ccc4o3)cc2)cc1" . Reported IC50?
a: 14 µM

q: Item under review: "COc1ccc(S(=O)(=O)Nc2ccc(-c3nc4cc(NS(=O)(=O)c5ccc(OC)cc5)ccc4o3)cc2)cc1" . Reported IC50?
a: 14 µM

q: Item under review: "O=S(=O)(Nc1ccc2oc(-c3ccccc3)nc2c1)c1ccccc1Cl" . Reported IC50?
a: 40 µM

q: Item under review: "NCc1ccc(S(=O)(=O)Nc2ccc(-c3nc4cc(NS(=O)(=O)c5ccc(Cl)s5)ccc4o3)cc2)cc1" . Reported IC50?
a: 56 µM

q: Item under review: "O=S(=O)(Nc1ccc(-c2nc3cc(NS(=O)(=O)c4cccc(C(F)(F)F)c4)ccc3o2)cc1)c1cccc(C(F)(F)F)c1" . Reported IC50?
a: 12 µM

q: Item under review: "O=S(=O)(Nc1ccc(-c2nc3cc(NS(=O)(=O)c4ccc(Cl)s4)ccc3o2)cc1)c1ccc(Cl)c(C(F)(F)F)c1" . Reported IC50?
a: 7.6 µM

***
q: Item under review: "O=S(=O)(Nc1ccc(-c2nc3cc(NS(=O)(=O)c4ccc(Cl)s4)ccc3o2)cc1)c1ccc2ccccc2c1" . Reported IC50?
a: 6.9 µM

q: Item under review: "O=S(=O)(Nc1ccc(-c2nc3cc(NS(=O)(=O)c4ccccc4)ccc3o2)cc1)c1ccccc1" . Reported IC50?
a: 24 µM

q: Item under review: "O=S(=O)(Nc1ccc2oc(-c3ccc(NS(=O)(=O)c4cccc5ccccc45)cc3)nc2c1)c1ccc(Cl)s1" . Reported IC50?
a: 5.4 µM

q: Item under review: "O=[N+]([O-])c1cc(S(=O)(=O)Nc2ccc3oc(-c4ccccc4)nc3c2)ccc1Cl" . Reported IC50?
a: 35 µM
